Reference for the values: PubChem BioAssay AID463190

Assay: growth inhibitors of tim10-1 mutant yeast, primary screen, luminescence, uHTS (AID 463190);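 further: mutant grown at 25 °C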
Details: S. cerevisiae tim10-1 ts strain growth, BacTiter-Glo, 24 h; at 20 µM
Hit rate of the full screen: of about 330,000 compounds, about 7,300 (2.2%) were called active.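 How the source made its calls: active means inhibition of at least 40%; inactive means the rest.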 For the sample, actives were picked, then their nearest neighbours and some compounds at random.
I would appreciate it if you answered using one of these outcomes: active, inactive

INSERT INTO measurements (molecule, label_value) VALUES
  ('CC(C)Sc1nnc([C@H](Cc2ccccc2)NC(=O)OC(C)(C)C)o1', 'inactive'),
  ('O=C(c1ccccc1)N1CCC(CC2CC(c3ccc(Cl)cc3)=NO2)(C(=O)NCC2CCCCC2)CC1 (configuration not stated)', 'active'),
  ('C[C@@H](NC(=O)[C@@H]1Cc2ccccc2CN1)C(=O)NC1CCCC1', 'inactive'),
  ('COc1ccc(CNC(=O)C2(CC3CC(c4ccccc4)=NO3)CCN(C(=O)c3cccc(O)c3)CC2)cc1 (configuration not stated)', 'inactive'),
  ('COC(=O)c1cc(S(=O)(=O)NCC2CCN(Cc3ccc(Cl)cc3)CC2)cn1C', 'inactive'),
  ('CCOC12CC(C)(C)CC(C)(CC3=C1C(=O)CC(C)(C)C3)C2 (configuration not stated)', 'inactive'),
  ('COc1ccccc1CNC(=O)c1ccc(SC)cc1OC', 'active'),
  ('O=C(CN1CCN(C(=S)NC2CCCC2)CC1)Nc1ccc(Oc2ccccc2)cc1', 'inactive'),
  ('CCOC(=O)c1[nH]cnc1C(=O)Nc1ccccc1C', 'inactive'),
  ('Cc1ccc(CC(=O)Nc2cccc(C#N)c2)cc1', 'inactive');

Record request — test call for `CCOc1ccc(NC(=O)COc2ccc(C(=O)N3CCC(C(N)=O)CC3)cc2OC)cc1` inactive
